// provenance: ChEMBL document CHEMBL3588784

target: Phosphatidylinositol 4,5-bisphosphate 3-kinase catalytic subunit beta isoform (Homo sapiens, UniProt P42338); test: Inhibition of PI3Kbeta in human MDA-MB-468 cells assessed as inhibition of Akt phosphorylation at Ser-473 after 2 hrs by ELISA; format: cell-based
Sequence (P42338 whole entry, canonical isoform): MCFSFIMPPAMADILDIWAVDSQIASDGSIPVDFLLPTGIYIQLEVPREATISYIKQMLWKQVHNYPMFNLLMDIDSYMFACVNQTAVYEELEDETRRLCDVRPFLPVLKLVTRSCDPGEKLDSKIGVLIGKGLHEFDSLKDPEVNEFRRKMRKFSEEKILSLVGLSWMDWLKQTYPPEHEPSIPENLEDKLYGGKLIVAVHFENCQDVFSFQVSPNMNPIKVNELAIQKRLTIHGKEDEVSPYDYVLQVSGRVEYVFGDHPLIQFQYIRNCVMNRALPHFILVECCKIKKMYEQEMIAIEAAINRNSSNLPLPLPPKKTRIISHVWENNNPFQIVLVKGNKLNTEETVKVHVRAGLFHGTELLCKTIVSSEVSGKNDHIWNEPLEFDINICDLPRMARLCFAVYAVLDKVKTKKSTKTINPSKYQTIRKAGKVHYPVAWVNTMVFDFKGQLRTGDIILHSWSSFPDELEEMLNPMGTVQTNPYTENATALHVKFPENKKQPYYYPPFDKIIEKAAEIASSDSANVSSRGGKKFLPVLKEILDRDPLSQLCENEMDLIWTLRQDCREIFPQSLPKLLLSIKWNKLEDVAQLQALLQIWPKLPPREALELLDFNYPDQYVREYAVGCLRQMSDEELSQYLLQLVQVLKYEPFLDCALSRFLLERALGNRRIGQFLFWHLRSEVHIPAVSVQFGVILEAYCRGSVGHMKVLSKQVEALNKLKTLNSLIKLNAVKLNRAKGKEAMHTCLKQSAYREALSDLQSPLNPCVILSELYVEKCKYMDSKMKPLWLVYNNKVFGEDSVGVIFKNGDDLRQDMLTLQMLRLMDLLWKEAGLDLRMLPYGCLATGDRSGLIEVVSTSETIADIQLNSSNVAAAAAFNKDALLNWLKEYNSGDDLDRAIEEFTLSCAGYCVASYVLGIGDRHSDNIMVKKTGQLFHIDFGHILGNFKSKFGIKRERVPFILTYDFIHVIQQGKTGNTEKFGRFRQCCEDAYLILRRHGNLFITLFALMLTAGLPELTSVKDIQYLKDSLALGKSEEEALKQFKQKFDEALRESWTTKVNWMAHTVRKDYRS
pIC50: −log10 of the molar value.
TEST_READOUT: pIC50

structure_as_smiles=CN(C)CC(=O)N1CCC(n2ccc(-c3cnc(N)c(-n4nnc5ccccc54)n3)n2)CC1 test_readout=pIC50 result=5.00

[1] CN(C)CC(=O)N1CCC(c2cc(-c3cnc(N)c(-n4nnc5ccccc54)n3)n(C)n2)CC1
[2] CN(C)CC(=O)N1CCC(c2nc(-c3cnc(N)c(-n4nnc5ccccc54)n3)nn2C)CC1
[3] CN(C)CC(=O)N1CCC(c2nc(-c3cnc(N)c(-n4nnc5ccccc54)n3)n(C)n2)CC1
Order the records by pIC50, with each subsequent value no larger than the one before. Enter labels, ranked according to the request.
1, 3, 2
(1: 5.37, 3: 5.16, 2: 4.92)

[I] CN(C)CC(=O)N1CCC(c2cn(C)c(-c3cnc(N)c(-n4nnc5ccccc54)n3)n2)CC1
[II] CN(C)CC(=O)N1CCC(n2cc(-c3cnc(N)c(-n4nnc5ccccc54)n3)cn2)CC1
Pick one, I or II : lowest reported pIC50. State your choice using its label.
II
(II: 4.89, I: 5.10)
